# TESTED ON: V600E mutant B-raf (Homo sapiens, UniProt P15056, V600E)
# Construct: A375 cells, a human melanoma cell line having the V600E mutant B-raf is used in this assay; endogenous in cells; host or cells: A375 human melanoma cells
# Sequence (P15056 whole entry V600E): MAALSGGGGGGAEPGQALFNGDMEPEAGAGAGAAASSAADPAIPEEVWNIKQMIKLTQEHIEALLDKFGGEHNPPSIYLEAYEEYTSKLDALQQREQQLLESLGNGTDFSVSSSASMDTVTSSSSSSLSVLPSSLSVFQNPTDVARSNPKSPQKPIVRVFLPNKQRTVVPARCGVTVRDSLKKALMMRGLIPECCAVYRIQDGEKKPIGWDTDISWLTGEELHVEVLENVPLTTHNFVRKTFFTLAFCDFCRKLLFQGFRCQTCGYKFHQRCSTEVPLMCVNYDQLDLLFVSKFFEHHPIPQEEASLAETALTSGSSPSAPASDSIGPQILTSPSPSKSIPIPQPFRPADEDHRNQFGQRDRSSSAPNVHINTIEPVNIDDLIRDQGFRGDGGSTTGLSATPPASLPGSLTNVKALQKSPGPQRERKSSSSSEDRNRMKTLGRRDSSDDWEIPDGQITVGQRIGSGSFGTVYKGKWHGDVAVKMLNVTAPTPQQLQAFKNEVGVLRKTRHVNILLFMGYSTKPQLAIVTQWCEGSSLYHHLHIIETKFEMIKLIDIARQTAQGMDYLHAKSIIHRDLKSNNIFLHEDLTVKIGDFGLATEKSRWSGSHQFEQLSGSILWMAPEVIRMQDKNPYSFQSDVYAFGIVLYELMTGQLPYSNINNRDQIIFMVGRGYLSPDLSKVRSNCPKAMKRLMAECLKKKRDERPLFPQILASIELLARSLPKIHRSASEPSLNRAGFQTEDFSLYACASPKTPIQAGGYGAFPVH
# TEST METHOD NOTES: B-raf cell-based assay (ratio of phospho-ERK1/2 to total ERK1/2 in A375 cells)
# TEST PARAMETERS: Table I; A375 human melanoma cells, P-ERK/total ERK
MEASURED ENDPOINT: IC50 (nM)

Examples with answers:
C#Cc1cccc(Nc2nccc3c(Nc4ncccc4-c4ncnc5[nH]ccc45)c(C)ccc23)c1 = 10
Cc1ccc2c(Nc3ccc(C#N)cc3)ncnc2c1Nc1ncccc1-c1ncnc2[nH]ccc12 = 233
Cc1ccc2c(Nc3ccc(C#N)cc3)nccc2c1Nc1ncccc1-c1ncnc2cc[nH]c12 = 1000
Cc1ccc2c(Nc3ccc4c(C)cc(=O)[nH]c4c3)nccc2c1Nc1ncccc1-c1ncnc2[nH]ccc12 = 7
Cc1ccc2c(Nc3ccc(C#N)cc3)ncnc2c1Nc1ncccc1-c1ncnc2[nH]cnc12 = 103

I: Cc1ccc(C(F)(F)F)cc1Nc1nccc2c(Nc3nc(Cl)ncc3-c3ncnc4[nH]ccc34)c(C)ccc12
II: Cc1ccc2c(Nc3ccc4c(c3)C(F)(F)C(=O)N4C)nccc2c1Nc1ncccc1-c1ncnc2[nH]ccc12
Select one. Lower IC50: I or II Please respond with the label that marks your chosen entry. II
(II: 15 nM, I: 86 nM)

====

# TESTED ON: V600E mutant B-raf (Homo sapiens, UniProt P15056, V600E)
# Construct: A375 cells, a human melanoma cell line having the V600E mutant B-raf is used in this assay; endogenous in cells; host or cells: A375 human melanoma cells
# TEST METHOD NOTES: B-raf cell-based assay (ratio of phospho-ERK1/2 to total ERK1/2 in A375 cells)
# TEST PARAMETERS: Table I; A375 human melanoma cells, P-ERK/total ERK
MEASURED ENDPOINT: IC50 (nM)

Cc1ccc2c(Nc3ccc4c(c3)NC(=O)C4(C)C)nccc2c1Nc1ncccc1-c1ncnc2[nH]ccc12 = 12

A: Cc1ccc2c(Nc3ccc4c(c3)NC(=O)[C@@H]4C)nccc2c1Nc1ncccc1-c1ncnc2[nH]ccc12
B: Cc1ccc2c(Nc3ccc(C#N)cc3)nccc2c1Nc1ncccc1-c1ncnc2[nH]ccc12
C: Cc1ccc2c(Nc3ccc(Cl)cc3)nccc2c1Oc1ncccc1-c1ncnc2[nH]cnc12
Ranking field: IC50; order: falling. # the answer lists labels in the order requested C, B, A

====

# TESTED ON: V600E mutant B-raf (Homo sapiens, UniProt P15056, V600E)
# Construct: A375 cells, a human melanoma cell line having the V600E mutant B-raf is used in this assay; endogenous in cells; host or cells: A375 human melanoma cells
# TEST METHOD NOTES: B-raf cell-based assay (ratio of phospho-ERK1/2 to total ERK1/2 in A375 cells)
# TEST PARAMETERS: Table I; A375 human melanoma cells, P-ERK/total ERK
# Description: A cell-based assay was optimized to assay the ability of compounds to inhibit B-raf activity in a whole cell context. […] The cell-based assay quantifies the ratio of phospho-ERK1/2 to total ERK1/2 and can thereby assay the cellular inhibition of B-raf kinase activity. […] After 4 washes in PBS/0.1% Tween-20 the microplate is scanned on an Odyssey Infrared Imager (Li-Cor Bioscience) which can read the signal given by the two secondary antibodies on their respective channels. […]
pIC50: −log10 of the molar value.
MEASURED ENDPOINT: pIC50

Examples with answers:
Cc1ccc2c(Nc3cccc(C(F)(F)F)c3)nccc2c1Nc1ncccc1-c1ncnc2[nH]ncc12 = 8.10
Cc1ccc2c(Nc3ccc(C#N)cc3)nccc2c1Nc1ncccc1-c1ncnc2[nH]cnc12 = 8.40
Cc1ccc2c(Nc3ccc4c(c3)OC(F)(F)O4)nccc2c1Nc1ncccc1-c1ncnc2[nH]ccc12 = 7.60
Cc1ccc2c(Nc3ccc(Cl)cc3)nccc2c1Nc1ncccc1-c1ncnc2[nH]ncc12 = 8.52
Cc1ccc2c(Nc3ccc(C(F)(F)F)cc3)nccc2c1Nc1ncccc1-c1ncnc2[nH]ccc12 = 7.28

P: Cc1ccc2c(Nc3ccc(Cl)cc3)nccc2c1Nc1ncccc1-c1ncnc2cc[nH]c12
Q: COc1ccc(Nc2nccc3c(Nc4ncccc4-c4ncnc5[nH]ncc45)c(C)ccc23)cc1C(F)(F)F
R: Cc1ccc2c(Nc3ccc(Cl)cc3)nccc2c1Nc1ncccc1-c1ncnc2[nH]ccc12
S: Cc1ccc(OC(F)(F)F)cc1Nc1nccc2c(Nc3ncccc3-c3ncnc4[nH]ccc34)c(C)ccc12
Put these in order: smallest pIC50 first, largest last. # the answer lists labels in the order requested P, S, Q, R
(P: 6.55, S: 6.97, Q: 7.55, R: 8.30)

P: Cc1ccc2c(Nc3ccc4snc(C)c4c3)nccc2c1Nc1ncccc1-c1ncnc2[nH]ccc12
Q: Cc1ccc2c(Nc3ccc4c(c3)OC(F)(F)O4)nccc2c1Nc1ncccc1-c1ncnc2[nH]cnc12
R: Cc1ccc2c(Nc3ccc4c(c3)C(F)(F)C(=O)N4)nccc2c1Nc1ncccc1-c1ncnc2[nH]ccc12
S: Cc1ccc2c(Nc3ccc4c(c3)NC(=O)C4)nccc2c1Nc1ncccc1-c1ncnc2[nH]ccc12
Put these in order: smallest pIC50 first, largest last. # the answer lists labels in the order requested S, R, P, Q
(S: 7.35, R: 7.60, P: 7.82, Q: 8.22)

====

# TESTED ON: recombinant HuBraf V600E (Homo sapiens, UniProt P15056, V600E)
# TEST METHOD NOTES: B-raf Homogenous Time Resolved Fluorescent (HTRF) kinase assay
# Format: biochemical
# TEST PARAMETERS: Table I; human mutant B-raf V600E, substrate MEK1, 10 uM ATP; read-out: HTRF Enzyme assay Data IC50
# Method: B-raf-Homogenous Time Resolved Fluorescent (HTRF) Kinase Assay The final concentration of the kinase reaction buffer is 50 mM Tris-HCL pH 7.5, 10 mM MgCl2, 0.5% glucose, 0.5 mM DTT, 0.01% BSA. […] The detection reaction proceeds for one hour and is read on a RubyStar (BMG Labtech) counter. IC50s for the test compounds are generated using Excel-XLfit software.
MEASURED ENDPOINT: IC50 (nM)

Examples with answers:
Cc1ccc2c(Nc3ccc4c(c3)NC(=O)[C@@H]4C)nccc2c1Nc1ncccc1-c1ncnc2[nH]ccc12 = 10
Cc1ccc2c(Nc3ccc(C(F)(F)F)cc3)nccc2c1Nc1ncccc1-c1ncnc2[nH]ccc12 = 47
Cc1ccc2c(Nc3ccc(Cl)cc3)nccc2c1Nc1ncccc1-c1ncnc2[nH]ccc12 = 3
Cc1ccc2c(Nc3ccc(Cl)cc3)nccc2c1Nc1ncccc1-c1ncnc2cc[nH]c12 = 20
Cc1ccc2c(Nc3ccc4c(c3)C(F)(F)C(=O)N4C)nccc2c1Nc1ncccc1-c1ncnc2[nH]ccc12 = 8

A: Cc1ccc2c(Nc3ccc4c(c3)NC(=O)C4(C)C)nccc2c1Nc1ncccc1-c1ncnc2[nH]ccc12
B: Cc1ccc2c(Nc3ccc4c(C)cc(=O)[nH]c4c3)nccc2c1Nc1ncccc1-c1ncnc2[nH]ccc12
Select one. Lower IC50: A or B Please respond with the label that marks your chosen entry. B
(B: 7 nM, A: 25 nM)

====

# TESTED ON: recombinant HuBraf V600E (Homo sapiens, UniProt P15056, V600E)
# TEST METHOD NOTES: B-raf Homogenous Time Resolved Fluorescent (HTRF) kinase assay
# Type: biochemical
# TEST PARAMETERS: Table I; human mutant B-raf V600E, substrate MEK1, 10 uM ATP; read-out: HTRF Enzyme assay Data IC50
MEASURED ENDPOINT: IC50 (µM)

A: Cc1ccc2c(Nc3cccc(C(F)(F)F)c3)nccc2c1Nc1ncccc1-c1ncnc2[nH]cnc12 [Example 58]
B: Cc1ccc2c(Nc3ccc(C#N)cc3)nccc2c1Nc1ncccc1-c1ncnc2cc[nH]c12 [Example 63]
C: Cc1ccc2c(Nc3ccc4c(c3)OC(F)(F)O4)nccc2c1Nc1ncccc1-c1ncnc2cc[nH]c12 [Example 64]
D: Cc1ccc(C(F)(F)F)cc1Nc1nccc2c(Nc3nc(Cl)ncc3-c3ncnc4[nH]ccc34)c(C)ccc12 [Example 55]
E: Cc1ccc(OC(F)(F)F)cc1Nc1nccc2c(Nc3ncccc3-c3ncnc4[nH]ccc34)c(C)ccc12 [Example 41]
Put these in order: smallest IC50 first, largest last. # the answer lists labels in the order requested A, D, E, B, C
(A: 0.006 µM, D: 0.015 µM, E: 0.035 µM, B: 0.171 µM, C: 0.302 µM)

a: Cc1ccc2c(Nc3ccc(C#N)cc3)ncnc2c1Nc1ncccc1-c1ncnc2[nH]ccc12 [Example 60]
b: Cc1ccc2c(Nc3ccc4c(c3)OC(F)(F)O4)nccc2c1Nc1ncccc1-c1ncnc2[nH]cnc12 [Example 59]
Select one. Lower IC50: a or b Please respond with the label that marks your chosen entry. b

====

# TESTED ON: recombinant HuBraf V600E (Homo sapiens, UniProt P15056, V600E)
# TEST METHOD NOTES: B-raf Homogenous Time Resolved Fluorescent (HTRF) kinase assay
# Format: biochemical
# TEST PARAMETERS: Table I; human mutant B-raf V600E, substrate MEK1, 10 uM ATP; read-out: HTRF Enzyme assay Data IC50
MEASURED ENDPOINT: IC50 (nM)

a: Cc1ccc2c(Nc3ccc(C#N)cc3)nccc2c1Nc1ncccc1-c1ncnc2[nH]cnc12
b: Cc1ccc2c(Nc3ccc4c(c3)C(F)(F)C(=O)N4)nccc2c1Nc1ncccc1-c1ncnc2[nH]ccc12
Of the two listed items, which has the higher IC50? First: a Second: b Please respond with the label that marks your chosen entry. b
(b: 15 nM, a: 0.6 nM)

Data credit: patent US8557830B2
